assay: Pharmacokinetics following intravenous administration in beagle dogs; assay type: in vivo; settings: dog, in vivo, 1.4 mg/kg IV slow bolus, read-out: Cmax
*1 amine or outer side, *2 acyl side, *3 side chain or, on linkers, in order; H or OH if unused. Where a SMILES comes first, the peptide text is derived from it. Bridges are numbered along the chain shown (N, C = ends). [ ]: non-standard residue; d: D form. The star is where a group is joined. pTerphenylCO(4''-OnC5H11) = CCCCCOc1ccc(-c2ccc(-c3ccc(C(=O)*)cc3)cc2)cc1; Orn(4R-OH,5R-OH) = O=C([C@H](C[C@@H](O)[C@@H](O)N[*:3])N[*:1])[*:2]; hTyr(3S-OH,4S-OH) = N[C@H](C(=O)O)[C@H](O)[C@@H](O)c1ccc(O)cc1; Pro(3S-OH,4S-Me) = C[C@H]1CN[C@H](C(=O)O)[C@H]1O; Hyp = O=C(O)[C@@H]1C[C@@H](O)CN1

{"compound": "CCCCCOc1ccc(-c2ccc(-c3ccc(C(=O)N[C@H]4C[C@@H](O)[C@@H](O)NC(=O)[C@@H]5[C@@H](O)[C@@H](C)CN5C(=O)[C@H]([C@@H](C)O)NC(=O)[C@H]([C@H](O)[C@@H](O)c5ccc(O)cc5)NC(=O)[C@@H]5C[C@@H](O)CN5C(=O)[C@H]([C@@H](C)O)NC4=O)cc3)cc2)cc1 [Anidulafungin, anidulafungin, reference compound] ({pTerphenylCO(4''-OnC5H11)}-[Orn(4R-OH,5R-OH)]T[Hyp][hTyr(3S-OH,4S-OH)]T[Pro(3S-OH,4S-Me)]; lactam 1-C)", "Cmax [ng/mL]": 3230}

----------
assay: Pharmacokinetics (oral bioavailability) following oral administration in beagle dogs; type: in vivo; parameters: key: NI = no improvement in oral bioavailability in comparison to saline; conditions: oral, formulation 5
*1 amine or outer side, *2 acyl side, *3 side chain or, on linkers, in order; H or OH if unused. Where a SMILES comes first, the peptide text is derived from it. Bridges are numbered along the chain shown (N, C = ends). [ ]: non-standard residue; d: D form. The star is where a group is joined. pTerphenylCO(4''-OnC5H11) = CCCCCOc1ccc(-c2ccc(-c3ccc(C(=O)*)cc3)cc2)cc1; Orn(4R-OH,5R-OH) = O=C([C@H](C[C@@H](O)[C@@H](O)N[*:3])N[*:1])[*:2]; hTyr(3S-OH,4S-OH) = N[C@H](C(=O)O)[C@H](O)[C@@H](O)c1ccc(O)cc1; Pro(3S-OH,4S-Me) = C[C@H]1CN[C@H](C(=O)O)[C@H]1O; Hyp = O=C(O)[C@@H]1C[C@@H](O)CN1
readout.name: Improvement (ratio of % oral bioavailability to saline)

{"compound": "CCCCCOc1ccc(-c2ccc(-c3ccc(C(=O)NC4CC(O)C(OCCOCCOC)NC(=O)C5C(O)C(C)CN5C(=O)C(C(C)O)NC(=O)C(C(O)C(O)c5ccc(O)cc5)NC(=O)C5CC(O)CN5C(=O)C(C(C)O)NC4=O)cc3)cc2)cc1 (stereo not shown) [Compound 19]", "measured.result": "NI"}
{"compound": "CCCCCOc1ccc(-c2ccc(-c3ccc(C(=O)NC4CC(O)C(NCCNCCO)NC(=O)C5C(O)C(C)CN5C(=O)C(C(C)O)NC(=O)C(C(O)C(O)c5ccc(O)cc5)NC(=O)C5CC(O)CN5C(=O)C(C(C)O)NC4=O)cc3)cc2)cc1 (stereo not shown) [Compound 39]", "measured.result": "NI"}
{"compound": "CC(=O)[O-].CCCCCOc1ccc(-c2ccc(-c3ccc(C(=O)NC4CC(O)C(OCC[N+](C)(C)C)NC(=O)C5C(O)C(C)CN5C(=O)C(C(C)O)NC(=O)C(C(O)C(O)c5ccc(O)cc5)NC(=O)C5CC(O)CN5C(=O)C(C(C)O)NC4=O)cc3)cc2)cc1 (stereo not shown) [Compound 22]", "measured.result": 3.5}
{"compound": "CCCCCOc1ccc(-c2ccc(-c3ccc(C(=O)NC4CC(O)C(NCC[N+](C)(C)C)NC(=O)C5C(O)C(C)CN5C(=O)C(C(C)O)NC(=O)C(C(O)C(O)c5ccc(O)cc5)NC(=O)C5CC(O)CN5C(=O)C(C(C)O)NC4=O)cc3)cc2)cc1 (stereo not shown) [Compound 37]", "measured.result": "NI"}
{"compound": "CCCCCOc1ccc(-c2ccc(-c3ccc(C(=O)NC4CC(O)C(OCCOCCN)NC(=O)C5C(O)C(C)CN5C(=O)C(C(C)O)NC(=O)C(C(O)C(O)c5ccc(O)cc5)NC(=O)C5CC(O)CN5C(=O)C(C(C)O)NC4=O)cc3)cc2)cc1 (stereo not shown) [Compound 26]", "measured.result": "NI"}
{"compound": "CCCCCOc1ccc(-c2ccc(-c3ccc(C(=O)NC4CC(O)C(OCCOCCO)NC(=O)C5C(O)C(C)CN5C(=O)C(C(C)O)NC(=O)C(C(O)C(O)c5ccc(O)cc5)NC(=O)C5CC(O)CN5C(=O)C(C(C)O)NC4=O)cc3)cc2)cc1 (stereo not shown) [Compound 21]", "measured.result": "NI"}
{"compound": "CCCCCOc1ccc(-c2ccc(-c3ccc(C(=O)N[C@H]4C[C@@H](O)[C@@H](O)NC(=O)[C@@H]5[C@@H](O)[C@@H](C)CN5C(=O)[C@H]([C@@H](C)O)NC(=O)[C@H]([C@H](O)[C@@H](O)c5ccc(O)cc5)NC(=O)[C@@H]5C[C@@H](O)CN5C(=O)[C@H]([C@@H](C)O)NC4=O)cc3)cc2)cc1 [Anidulafungin, anidulafungin, reference compound] ({pTerphenylCO(4''-OnC5H11)}-[Orn(4R-OH,5R-OH)]T[Hyp][hTyr(3S-OH,4S-OH)]T[Pro(3S-OH,4S-Me)]; lactam 1-C)", "measured.result": 2.1}
